Each recorded value in this set is attributed to the supplement of paper PMC11061612.

# System: BT-20 (Breast Carcinoma)
# Assay Explanation: combination Emax (second highest fraction inhibited in the dose matrix, 72 h); higher = more inhibition; extreme values may be limits of the assay
Assay Metric: combination Emax

{"columns": ["Compound", "Observed"],
 "data": [
  ["CCN(CCO)CCCOc1ccc2c(Nc3cc(CC(=O)Nc4cccc(F)c4)[nH]n3)ncnc2c1 [AZD2811] + C[C@@H]1COCCN1C2=NC(=NC(=C2)C3(CC3)[S@](=N)(=O)C)C4=C5C=CNC5=NC=C4 [AZD6738] (first compound max 1 µM, 7x7, partner max 10 µM)", 0.443]
]}

Entry Cc1c2c(nn1C)CSCc1cc(n(C)n1)CSc1cc(c3ccccc3c1)OCCCc1c(C(=O)O)n(C)c3c-2c(Cl)ccc13 [AZD5991] + Cc1cc2ncnn2cc1Nc1ncc2c(n1)n(C1CCOCC1)c(=O)n2C [AZD7648] (first compound max 1 µM, 7x7, partner max 10 µM) ; combination Emax = 0.694

Entry C[C@@H]1COCCN1c1cc(C2([S@](C)(=N)=O)CC2)nc(-c2ccnc3[nH]ccc23)n1 [AZD6738] + O=C(c1cc(Cc2n[nH]c(=O)c3ccccc23)ccc1F)N1CCN(C(=O)C2CC2)CC1 [Olaparib] (first compound max 10 µM, 7x7, partner max 10 µM) ; combination Emax = 0.415

Entry COc1cccc(OCCCN)c1-c1cc(Nc2cnc(C#N)cn2)n[nH]1 [Prexasertib] + C[C@@H]1COCCN1C2=NC(=NC(=C2)C3(CC3)[S@](=N)(=O)C)C4=C5C=CNC5=NC=C4 [AZD6738] (first compound max 1 µM, 7x7, partner max 10 µM) ; combination Emax = 0.599

Entry COc1cc2c(cc1OCCCCCOc1cc3c(cc1OC)C(=O)N1C=C(C)C[C@H]1C=N3)N=C[C@@H]1CC(C)=CN1C2=O [SG3199] + O=C(c1cc(Cc2n[nH]c(=O)c3ccccc23)ccc1F)N1CCN(C(=O)C2CC2)CC1 [Olaparib] (first compound max 0.001 µM, 7x7, partner max 10 µM) ; combination Emax = 0.154

Entry NC1(C(=O)N[C@@H](CCO)c2ccc(Cl)cc2)CCN(c2ncnc3[nH]ccc23)CC1 [Capivasertib] + C[C@@H]1COCCN1C2=NC(=NC(=C2)C3(CC3)[S@](=N)(=O)C)C4=C5C=CNC5=NC=C4 [AZD6738] (first compound max 10 µM, 7x7, partner max 10 µM) ; combination Emax = 0.771

Entry COc1nnc2ccc(N3CCC(c4ccc(OCCN5CCN(C)C(=O)[C@H]5C)cc4)CC3)nn12 [AZD5153] + Cc1c2c(nn1C)CSCc1cc(n(C)n1)CSc1cc(c3ccccc3c1)OCCCc1c(C(=O)O)n(C)c3c-2c(Cl)ccc13 [AZD5991] (first compound max 1 µM, 7x7, partner max 1 µM) ; combination Emax = 0.787

Entry COc1nnc2ccc(N3CCC(c4ccc(OCCN5CCN(C)C(=O)[C@H]5C)cc4)CC3)nn12 [AZD5153] + C=CCn1c(=O)c2cnc(Nc3ccc(N4CCN(C)CC4)cc3)nc2n1-c1cccc(C(C)(C)O)n1 [AZD1775] (first compound max 1 µM, partner max 1 µM) ; combination Emax = 0.471

Entry Cc1cc2ncnn2cc1Nc1ncc2c(n1)n(C1CCOCC1)c(=O)n2C [AZD7648] + CN(C)CCCOc1ccc(-c2ccc3ncc4c(c3c2)n(C2CCOCC2)c(=O)n4C)cn1 [AZD0156] (first compound max 10 µM, 7x7, partner max 1 µM) ; combination Emax = 0.413

Entry Cc1cc2ncnn2cc1Nc1ncc2c(n1)n(C1CCOCC1)c(=O)n2C [AZD7648] + O=C(c1cc(Cc2n[nH]c(=O)c3ccccc23)ccc1F)N1CCN(C(=O)C2CC2)CC1 [Olaparib] (first compound max 10 µM, 7x7, partner max 10 µM) ; combination Emax = 0.313

Entry CN(CCO)CC[C@H](CSc1ccccc1)Nc1ccc(S(=O)(=O)NC(=O)c2ccc(N3CCC([C@@H](O)c4ccccc4-c4ccc(Cl)cc4)CC3)cc2)cc1S(=O)(=O)C(F)(F)F [AZD4320] + C=CCn1c(=O)c2cnc(Nc3ccc(N4CCN(C)CC4)cc3)nc2n1-c1cccc(C(C)(C)O)n1 [AZD1775] (first compound max 1 µM, partner max 1 µM) ; combination Emax = 0.787

====

# Test system: TGBC11TKB (Gastric Carcinoma)
# Assay Explanation: Bliss excess, mean over the matrix (fraction); higher = more synergy
Assay Metric: Bliss excess
Write the value as a bare number.

{"columns": ["Compound", "Observed"],
 "data": [
  ["CN(CCO)CC[C@H](CSc1ccccc1)Nc1ccc(S(=O)(=O)NC(=O)c2ccc(N3CCC([C@@H](O)c4ccccc4-c4ccc(Cl)cc4)CC3)cc2)cc1S(=O)(=O)C(F)(F)F [AZD4320] + Cc1cc2ncnn2cc1Nc1ncc2c(n1)n(C1CCOCC1)c(=O)n2C [AZD7648] (first compound max 1 µM, 7x7, partner max 10 µM)", 0.0075]
]}

As a next step, examine the compound that follows.
Entry C[C@@H](Oc1cc(-c2cnn(C3CCNCC3)c2)cnc1N)c1c(Cl)ccc(F)c1Cl [Crizotinib] + CC1=C(C(=CC=C1)Cl)NC(=O)C2=CN=C(S2)NC3=CC(=NC(=N3)C)N4CCN(CC4)CCO [Dasatinib] (first compound max 10 µM, 7x7, partner max 2 µM) ; Bliss excess = -0.0343

====

# Tested on: EMC-BAC-2 (Non-Small Cell Lung Carcinoma)
# Assay Explanation: Bliss excess, mean over the matrix (fraction); higher = more synergy
Recorded measurements of Bliss excess, one per entry
Write the value as a bare number.

Recorded results for 2 molecules are shown here.
{"columns": ["Molecule", "Target Or Test System", "Observed"],
 "data": [
  ["Cc1c2c(nn1C)CSCc1cc(n(C)n1)CSc1cc(c3ccccc3c1)OCCCc1c(C(=O)O)n(C)c3c-2c(Cl)ccc13 [AZD5991] + CCN(CCO)CCCOc1ccc2c(Nc3cc(CC(=O)Nc4cccc(F)c4)[nH]n3)ncnc2c1 [AZD2811] (first compound max 1 µM, 7x7, partner max 1 µM)", "EMC-BAC-2 (Non-Small Cell Lung Carcinoma)", 0.0438],
  ["CCc1c2c(nc3ccc(O)cc13)-c1cc3c(c(=O)n1C2)COC(=O)[C@]3(O)CC [SN-38] + CN(C)CCCOc1ccc(-c2ccc3ncc4c(c3c2)n(C2CCOCC2)c(=O)n4C)cn1 [AZD0156] (first compound max 0.3 µM, 7x7, partner max 1 µM)", "EMC-BAC-2 (Non-Small Cell Lung Carcinoma)", 0.0414]
]}

Entry Cc1c2c(nn1C)CSCc1cc(n(C)n1)CSc1cc(c3ccccc3c1)OCCCc1c(C(=O)O)n(C)c3c-2c(Cl)ccc13 [AZD5991] + C[C@@H](Nc1cc(F)cc(F)c1)c1cc(C(=O)N(C)C)cc2c(=O)cc(N3CCOCC3)oc12 [AZD8186] (first compound max 1 µM, 7x7, partner max 3 µM) ; Bliss excess = -0.0336

====

Recorded measurements of combination Emax, one per entry
# System: SCC-3 (B-Cell Non-Hodgkin's Lymphoma)
# Assay Explanation: combination Emax (second highest fraction inhibited in the dose matrix, 72 h); higher = more inhibition; extreme values may be limits of the assay
Write the value as a bare number.

Recorded results for 2 compounds are shown here.
{"columns": ["Compound", "Target Or Test System", "Observed"],
 "data": [
  ["COc1nnc2ccc(N3CCC(c4ccc(OCCN5CCN(C)C(=O)[C@H]5C)cc4)CC3)nn12 [AZD5153] + CCN(CCO)CCCOc1ccc2c(Nc3cc(CC(=O)Nc4cccc(F)c4)[nH]n3)ncnc2c1 [AZD2811] (first compound max 1 µM, 7x7, partner max 1 µM)", "SCC-3 (B-Cell Non-Hodgkin's Lymphoma)", 0.9],
  ["COc1nnc2ccc(N3CCC(c4ccc(OCCN5CCN(C)C(=O)[C@H]5C)cc4)CC3)nn12 [AZD5153] + CC1(C)CCC(CN2CCN(c3ccc(C(=O)NS(=O)(=O)c4ccc(NCC5CCOCC5)c([N+](=O)[O-])c4)c(Oc4cnc5[nH]ccc5c4)c3)CC2)=C(c2ccc(Cl)cc2)C1 [Venetoclax] (first compound max 1 µM, 7x7, partner max 1 µM)", "SCC-3 (B-Cell Non-Hodgkin's Lymphoma)", 0.887]
]}

As a next step, examine the compound that follows.
Entry COc1nnc2ccc(N3CCC(c4ccc(OCCN5CCN(C)C(=O)[C@H]5C)cc4)CC3)nn12 [AZD5153] + C=CCn1c(=O)c2cnc(Nc3ccc(N4CCN(C)CC4)cc3)nc2n1-c1cccc(C(C)(C)O)n1 [AZD1775] (first compound max 1 µM, partner max 1 µM) ; combination Emax = 0.9

====

Recorded measurements of Bliss excess, one per entry
# Test system: NCI-H322M (Lung Adenocarcinoma)
# Assay Explanation: Bliss excess, mean over the matrix (fraction); higher = more synergy

Recorded results for 2 compounds are shown here.
{"columns": ["Compound", "Observed"],
 "data": [
  ["CN(C)CCCOc1ccc(-c2ccc3ncc4c(c3c2)n(C2CCOCC2)c(=O)n4C)cn1 [AZD0156] + CCN(CCO)CCCOc1ccc2c(Nc3cc(CC(=O)Nc4cccc(F)c4)[nH]n3)ncnc2c1 [AZD2811] (first compound max 1 µM, 7x7, partner max 1 µM)", -0.0448],
  ["CCc1c2c(nc3ccc(O)cc13)-c1cc3c(c(=O)n1C2)COC(=O)[C@]3(O)CC [SN-38] + CN(C)CCCOc1ccc(-c2ccc3ncc4c(c3c2)n(C2CCOCC2)c(=O)n4C)cn1 [AZD0156] (first compound max 0.3 µM, 7x7, partner max 1 µM)", 0.15]
]}

Entry CC(=O)Nc1cccc(-n2c(=O)n(C3CC3)c(=O)c3c(Nc4ccc(I)cc4F)n(C)c(=O)c(C)c32)c1 [Trametinib] + Cc1nc(-c2cn3c(n2)-c2ccc(-c4cnn(C(C)(C)C(N)=O)c4)cc2OCC3)n(C(C)C)n1 [Taselisib] (first compound max 1 µM, 7x7, partner max 10 µM) ; Bliss excess = 0.0404

Entry CCN(CCO)CCCOc1ccc2c(Nc3cc(CC(=O)Nc4cccc(F)c4)[nH]n3)ncnc2c1 [AZD2811] + C[C@@H]1COCCN1C2=NC(=NC(=C2)C3(CC3)[S@](=N)(=O)C)C4=C5C=CNC5=NC=C4 [AZD6738] (first compound max 1 µM, 7x7, partner max 10 µM) ; Bliss excess = -0.0484

Entry COc1cc2c(cc1OCCCCCOc1cc3c(cc1OC)C(=O)N1C=C(C)C[C@H]1C=N3)N=C[C@@H]1CC(C)=CN1C2=O [SG3199] + O=C(c1cc(Cc2n[nH]c(=O)c3ccccc23)ccc1F)N1CCN(C(=O)C2CC2)CC1 [Olaparib] (first compound max 0.001 µM, 7x7, partner max 10 µM) ; Bliss excess = -0.0014
